- EXPERIMENTAL_PARAMETERS: in acetic acid, 310.83 K
PROPERTY_MEASURED: solubility (mole fraction)
Give bare numbers.

Answer with the recorded solubility (mole fraction) for the molecule listed here: `C1N2CN3CN1CN(C2)C3`
0.245

* * *

- EXPERIMENTAL_PARAMETERS: in methanol, 319.63 K
PROPERTY_MEASURED: solubility (mole fraction)
Numbers only.

Answer with the recorded solubility (mole fraction) for the compound listed here: `C1N2CN3CN1CN(C2)C3`
0.0304

* * *

- EXPERIMENTAL_PARAMETERS: in acetic acid, 304.52 K
PROPERTY_MEASURED: solubility (mole fraction)

Answer with the recorded solubility (mole fraction) for the compound listed here: `C1N2CN3CN1CN(C2)C3`
0.245

* * *

- EXPERIMENTAL_PARAMETERS: in acetic acid, 327.65 K
PROPERTY_MEASURED: solubility (mole fraction)
Numbers only.

Answer with the recorded solubility (mole fraction) for the compound listed here: `C1N2CN3CN1CN(C2)C3`
0.25

* * *

- EXPERIMENTAL_PARAMETERS: in ethanol, 288.19 K
PROPERTY_MEASURED: solubility (mole fraction)
Answers are plain numbers.

Answer with the recorded solubility (mole fraction) for the molecule listed here: `C1N2CN3CN1CN(C2)C3`
0.0085

* * *

- EXPERIMENTAL_PARAMETERS: in ethanol, 312.91 K
PROPERTY_MEASURED: solubility (mole fraction)
Give bare numbers.

Answer with the recorded solubility (mole fraction) for the compound listed here: `C1N2CN3CN1CN(C2)C3`
0.0148

* * *

- EXPERIMENTAL_PARAMETERS: in methanol, 326.25 K
PROPERTY_MEASURED: solubility (mole fraction)
Answers are plain numbers.

Answer with the recorded solubility (mole fraction) for the compound listed here: `C1N2CN3CN1CN(C2)C3`
0.0335

* * *

- EXPERIMENTAL_PARAMETERS: in methanol, 311.9 K
PROPERTY_MEASURED: solubility (mole fraction)
One number for each entry.

Answer with the recorded solubility (mole fraction) for the molecule listed here: `C1N2CN3CN1CN(C2)C3`
0.028

* * *

- EXPERIMENTAL_PARAMETERS: in water, 317.05 K
PROPERTY_MEASURED: solubility (mole fraction)

Answer with the recorded solubility (mole fraction) for the compound listed here: `C1N2CN3CN1CN(C2)C3`
0.0931

* * *

- EXPERIMENTAL_PARAMETERS: in acetic acid, 337.15 K
PROPERTY_MEASURED: solubility (mole fraction)

Answer with the recorded solubility (mole fraction) for the molecule listed here: `C1N2CN3CN1CN(C2)C3`
0.256

* * *

- EXPERIMENTAL_PARAMETERS: in water, 303.21 K
PROPERTY_MEASURED: solubility (mole fraction)
Answers are plain numbers.

Answer with the recorded solubility (mole fraction) for the molecule listed here: `C1N2CN3CN1CN(C2)C3`
0.098

* * *

- EXPERIMENTAL_PARAMETERS: in methanol, 315.95 K
PROPERTY_MEASURED: solubility (mole fraction)

Answer with the recorded solubility (mole fraction) for the compound listed here: `C1N2CN3CN1CN(C2)C3`
0.0293

* * *

- EXPERIMENTAL_PARAMETERS: in acetic acid, 332.65 K
PROPERTY_MEASURED: solubility (mole fraction)
Numbers only.

Answer with the recorded solubility (mole fraction) for the compound listed here: `C1N2CN3CN1CN(C2)C3`
0.251
